System: MYB mRNA
Test: RT-qPCR splicing assay, MYB canonical junction (CJ) and alternative junction (AJ) mRNA
Assay type: cell-based, human
Details: Homo sapiens; decrease in MYB canonical junction (CJ) mRNA, RT-qPCR; read-out: MYB CJ IC50
IC50 reference

These solved cases illustrate the format of a correct answer.
COMPOUND | IC50
Cn1ccc2nn(-c3ccc4c(=O)n(C5CCNCC5)ccc4c3)cc2c1=O | > 10000 nM
Cc1cn2cc(-c3cc(F)c4c(=O)n(C5CCNC6(CC6)C5)ccc4c3)c(O)c(C)c2n1 (stereo not shown) | > 10000 nM
C=Cc1cn(C2CCNCC2)c(=O)c2c(F)cc(-c3cc(F)c4nc(C)cn4c3)cc12 | < 100 nM
Cc1c(O)c(-c2ncc3c(=O)n(C4C[C@H]5C[C@@H]4CN5)ccc3n2)cc2cn(C)nc12 (stereo in doubt) | 100 to 1000 nM
CCN1CC[C@@H](n2ncc3nc(-c4cc(C)c5nc(C)cn5n4)ccc3c2=O)CC12CC2 | < 100 nM
Cc1cn2cc(-c3ccc4c(=O)n(C5CCNCC5)cnc4c3)cc(C)c2n1 | 100 to 1000 nM
Cc1cn2cc(-c3cc(F)c4c(=O)n(C5CCOC5)cnc4c3)cc(C#N)c2n1 (stereo not shown) | 1000 to 10000 nM
Cc1cn2cc(-c3ncc4c(=O)n([C@H]5CCNC6(CC6)C5)ccc4n3)cc(F)c2n1 | 100 to 1000 nM
Cc1cn2nc(-c3ccc4c(=O)n(C5CCN(CCO)C6(CC6)C5)ncc4n3)cc(C)c2n1 (stereo not shown) | 100 to 1000 nM
Cc1cn2nc(-c3ccc4c(=O)n([C@H]5CCN(C)C6(CC6)C5)ncc4n3)cc(C)c2n1 | 100 to 1000 nM

Then this compound:
Provide measured IC50 value, entry: Cc1c(O)c(-c2nc(C)c3c(=O)n([C@H]4CCNC5(CC5)C4)ccc3n2)cc2cn(C)nc12
100 to 1000 nM
